Reported T/C values are given for each entry in this list.
- Tested on: BDF1 mice, colon carcinoma 38 sc, T/C %
- assay method text: NCI In Vivo Anticancer Drug Screen. Data for tumor model Colon Carcinoma 38 (subcutaneous) in B6D2F1 (BDF1) mice
- condition: endpoint: median tumor weight (est.); dose: 6.25 mg/kg/injection; schedule: Q07DX002 (ip); vehicle: saline; higher = larger tumour
Inconclusive results are not listed.
measurement kind: T/C

1) OCCN1CCN(CC/C=C2/c3ccccc3Sc3ccc(C(F)(F)F)cc32)CC1: 100 % of control
2) N=C(N)CCCCCCCCC(=N)N: 107 % of control
3) COC1=NCN=C2SC=C(N)N=C12: 102 % of control
4) COc1cccc2c1C(CO)N1C(C#N)C3CC(C(=O)O)C(C1C2)N3C (stereo not given): 71 % of control
5) Cc1c(N)nc(C(CC(N)=O)NCC(N)C(N)=O)nc1C(=O)NC(C(=O)NC(C)C(O)C(C)C(=O)NC(C(=O)NCCc1nc(-c2nc(C(=O)NCCCNCCCc3ccccn3)cs2)cs1)C(C)O)C(OC1OC(CO)C(O)C(O)C1OC1OC(CO)C(O)C(OC(N)=O)C1O)c1cnc[nH]1 (stereo not given): 70 % of control
6) CC(=O)Oc1c(C)[nH]ccc1=O: 107 % of control
7) C=C(C)[C@H]1CN[C@H](C(=O)O)[C@H]1CC(=O)O: 90 % of control
8) O=C1C=C(C2OC(CO)C(O)C2O)C(=O)N1 (stereo not given): 70 % of control
9) CN(N=O)C(N)=O: 99 % of control
10) OCCN1CCN(CC/C=C2/c3ccccc3Sc3ccc(Cl)cc32)CC1: 39 % of control

----------
- Test system: BDF1 mice, colon carcinoma 38 sc, T/C %
- assay method text: NCI In Vivo Anticancer Drug Screen. Data for tumor model Colon Carcinoma 38 (subcutaneous) in B6D2F1 (BDF1) mice
- condition: endpoint: median tumor weight (est.); dose: 6.25 mg/kg/injection; schedule: Q07DX002 (ip); vehicle: Klucel (hydroxypropylcellulose) (HPC); higher = larger tumour
Records with an inconclusive call do not appear.
Reported T/C values are given for each entry in this list.
measurement kind: T/C

1) [I][Hg][CH2]C1OCCOC1[CH2][Hg][I] (stereo not drawn): 92 % of control
2) O=C(Nc1ccc(Cl)c(Cl)c1)Nc1c(Oc2ccc(Cl)c(Cl)c2)ccc(Cl)c1S(=O)(=O)O: 167 % of control
3) C[C@@H]1C[C@H]2[C@@H]3CCC4=CC(=O)C=C[C@]4(C)[C@@]3(F)[C@@H](O)C[C@]2(C)[C@@]1(O)C(=O)CO: 156 % of control
4) CN1CCc2c(c3ccccc3c3ccccc23)C1: 111 % of control
5) C=C(Cl)C(=NC(C)(C)C)Nc1ccccc1C: 68 % of control
6) CNC(=O)OCc1c(COC(=O)NC)c(C)n(-c2ccc(OC)cc2)c1C: 82 % of control
7) Cn1c(=O)c2ncnnc2n(C)c1=O: 84 % of control
8) CC(=O)OC1=NC(C)c2c1cc(OC(C)=O)[nH]c2=O (stereo not drawn): 124 % of control

----------
Reported T/C values are given for each entry in this list.
- Test system: BDF1 mice, colon carcinoma 38 sc, T/C %
- assay method text: NCI In Vivo Anticancer Drug Screen. Data for tumor model Colon Carcinoma 38 (subcutaneous) in B6D2F1 (BDF1) mice
- condition: endpoint: median tumor weight (est.); dose: 200.0 mg/kg/injection; schedule: Q07DX002 (ip); vehicle: saline; higher = larger tumour
Records with an inconclusive call do not appear.
measurement kind: T/C

1) O=C[C@@H](CO)O[C@H](C=O)c1c[nH]c(=O)[nH]c1=O: 57 % of control
2) CN1CCN(c2ccc3nc(-c4ccc5nc(-c6ccc(O)cc6)[nH]c5c4)[nH]c3c2)CC1: 97 % of control
3) CN1CCN(CCCN2c3ccccc3Sc3ccc(C(F)(F)F)cc32)CC1: 74 % of control
4) N=c1nc2n(cc1F)[C@@H]1O[C@H](CO)[C@@H](O)[C@@H]1O2: 193 % of control
